Where these numbers come from: ChEMBL document CHEMBL5113515

- Assay: Drug concentration in overnight fasted mouse plasma at 5 mg/kg, po or 1 mg/kg, iv measured after 24 hrs
- Format: ADME, organism-based
Property Measured: concentration at 24 h (µM)
Note: unit µM is implicit; provide only the numeric part.

Record C=C(C)[C@@H]1CC[C@]2(NCCN3CCS(=O)(=O)CC3)CC[C@]3(C)[C@H](CC[C@@H]4[C@@]5(C)CC=C(C6=CC[C@@](CF)(C(=O)O)CC6)C(C)(C)[C@@H]5CC[C@]43C)[C@@H]12 [FIPRAVIRIMAT] . Reported concentration at 24 h: 0.179

* * *

- Tested on: Human immunodeficiency virus 1
- Assay: Antiviral activity against HIV1 wild type NL (4 to 3) infected in human MT2 cells measured after 4 to 5 days by dual-luciferase reporter assay
- Type: functional, organism-based
- Condition: Human immunodeficiency virus 1, MT2
Assign pEC50 to each entry below.
Note on units: pEC50 is unitless, being -log10 of a concentration expressed in mol/L.

Lab note: C=C(C)[C@@H]1CC[C@]2(NCCN3CCC(S(C)(=O)=O)CC3)CC[C@]3(C)[C@H](CC[C@@H]4[C@@]5(C)CC=C(C6=CCC(C(=O)O)(C(F)F)CC6)C(C)(C)[C@@H]5CC[C@]43C)[C@@H]12 (some centres undefined) gave pEC50 of 8.72

Noted for C=C(C)[C@@H]1CC[C@]2(NCCN3CCS(=O)(=O)CC3)CC[C@]3(C)[C@H](CC[C@@H]4[C@@]5(C)CC=C(C6=CCC(COC)(C(=O)O)CC6)C(C)(C)[C@@H]5CC[C@]43C)[C@@H]12 (some centres undefined) : its pEC50 reads 8.82

Form field pEC50, entry C=C(C)[C@@H]1CC[C@]2(NCCN3CCS(=O)(=O)CC3)CC[C@]3(C)[C@H](CC[C@@H]4[C@@]5(C)CC=C(C6=CCC(COCC)(C(=O)O)CC6)C(C)(C)[C@@H]5CC[C@]43C)[C@@H]12 (some centres undefined) : 8.49

Measured pEC50 of C=C(C)[C@@H]1CC[C@]2(NCCN3CCS(=O)(=O)CC3)CC[C@]3(C)[C@H](CC[C@@H]4[C@@]5(C)CC=C(C6=CCC(C)(C(=O)O)CC6)C(C)(C)[C@@H]5CC[C@]43C)[C@@H]12 (some centres undefined) : 8.82
